Parameter EC50: see the listing below.
target: human cloned CHRM4 receptor (Homo sapiens, UniProt P08173); experiment: CHRM4 Ca++ Flux Assay (M4_CHO cells, agonist mode); conditions: geometric mean if tested more than once, read-out: M4 FDSS EC50
Sequence (P08173 whole entry): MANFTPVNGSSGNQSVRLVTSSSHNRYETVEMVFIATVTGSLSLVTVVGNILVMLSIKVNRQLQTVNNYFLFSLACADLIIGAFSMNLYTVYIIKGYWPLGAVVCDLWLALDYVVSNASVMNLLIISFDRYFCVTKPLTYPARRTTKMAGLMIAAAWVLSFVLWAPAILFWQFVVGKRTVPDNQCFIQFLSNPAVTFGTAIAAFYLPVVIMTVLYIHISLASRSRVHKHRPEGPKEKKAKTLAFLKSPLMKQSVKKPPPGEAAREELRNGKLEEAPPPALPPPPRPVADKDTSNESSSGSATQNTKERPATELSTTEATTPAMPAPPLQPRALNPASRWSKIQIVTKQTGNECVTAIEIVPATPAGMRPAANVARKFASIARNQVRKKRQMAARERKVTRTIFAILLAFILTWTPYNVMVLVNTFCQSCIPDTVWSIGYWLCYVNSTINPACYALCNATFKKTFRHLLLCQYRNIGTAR
OBSERVATION TYPE: EC50 (nM)

INSERT INTO assay_data (molecule, study_target, observation_type, value_relation_sign, value_observed) VALUES
  ('COc1ccc(Cl)cc1C1CCN([C@@H]2COC3(C2)CN(c2ncns2)C3)CC1 [Example 5A]', 'human cloned CHRM4 receptor (Homo sapiens, UniProt P08173)', 'EC50', '=', 74),
  ('c1ccc(C2CCN([C@@H]3COC4(C3)CN(c3ncco3)C4)CC2)c(OC2CCOCC2)c1 [Example 4J]', 'human cloned CHRM4 receptor (Homo sapiens, UniProt P08173)', 'EC50', '=', 30),
  ('CC(C)(O)[C@H]1C[C@@H](Oc2ccc(F)cc2C2CCN([C@@H]3COC4(C3)CN(c3ncco3)C4)CC2)C1 (single isomer, unassigned) [Example 4T]', 'human cloned CHRM4 receptor (Homo sapiens, UniProt P08173)', 'EC50', '=', 25),
  ('Fc1ccc(OC2COC2)c(C2CCN([C@@H]3COC4(C3)CN(c3ncon3)C4)CC2)c1 [Example 6B]', 'human cloned CHRM4 receptor (Homo sapiens, UniProt P08173)', 'EC50', '=', 8),
  ('Cc1cc(COc2ccc(F)cc2C2CCN([C@@H]3COC4(C3)CN(c3nnco3)C4)CC2)on1 [Example 2G]', 'human cloned CHRM4 receptor (Homo sapiens, UniProt P08173)', 'EC50', '=', 3),
  ('COCCOc1ccc(F)cc1C1CCN([C@@H]2COC3(C2)CN(c2nncs2)C3)CC1 [Example 5S]', 'human cloned CHRM4 receptor (Homo sapiens, UniProt P08173)', 'EC50', '=', 197),
  ('Fc1ccc(OC[C@H]2CCOC2)c(C2CCN([C@@H]3COC4(C3)CN(c3nncs3)C4)CC2)c1 [Example 5X]', 'human cloned CHRM4 receptor (Homo sapiens, UniProt P08173)', 'EC50', '=', 58),
  ('C[C@H](Oc1ccc(F)cc1C1CCN([C@@H]2COC3(C2)CN(c2nnco2)C3)CC1)C1CCOCC1 [Example 2X]', 'human cloned CHRM4 receptor (Homo sapiens, UniProt P08173)', 'EC50', '=', 1780),
  ('CC(C)(O)CCOc1cc(F)ccc1C1CCN([C@@H]2COC3(C2)CN(c2nncs2)C3)CC1 [Example 5V]', 'human cloned CHRM4 receptor (Homo sapiens, UniProt P08173)', 'EC50', '=', 250),
  ('Fc1ccc(OC2CC3(COC3)C2)c(C2CCN([C@H]3COC4(C3)CN(c3nnco3)C4)CC2)c1 [Example 7A]', 'human cloned CHRM4 receptor (Homo sapiens, UniProt P08173)', 'EC50', '=', 1410),
  ('CC(C)(O)[C@H]1C[C@@H](Oc2ccc(F)cc2C2CCN([C@@H]3COC4(C3)CN(c3ncco3)C4)CC2)C1 (single isomer, unassigned) [Example 4U]', 'human cloned CHRM4 receptor (Homo sapiens, UniProt P08173)', 'EC50', '=', 42),
  ('Cc1nc(COc2ccccc2C2CCN([C@@H]3COC4(C3)CN(c3nncs3)C4)CC2)no1 [Example 5F]', 'human cloned CHRM4 receptor (Homo sapiens, UniProt P08173)', 'EC50', '<', 0.4),
  ('Fc1ccc(OC[C@@H]2COCCO2)c(C2CCN([C@@H]3COC4(C3)CN(c3nnco3)C4)CC2)c1 [Example 1F]', 'human cloned CHRM4 receptor (Homo sapiens, UniProt P08173)', 'EC50', '=', 30),
  ('O[C@H]1CC[C@@H](c2ccc(F)cc2C2CCN([C@@H]3COC4(C3)CN(c3nnco3)C4)CC2)CC1 (single isomer, unassigned) [Example 3I]', 'human cloned CHRM4 receptor (Homo sapiens, UniProt P08173)', 'EC50', '=', 38),
  ('Fc1cc(OC2COC2)c(C2CCN([C@@H]3COC4(C3)CN(c3ncco3)C4)CC2)cc1F [Example 4Q]', 'human cloned CHRM4 receptor (Homo sapiens, UniProt P08173)', 'EC50', '=', 11);
